Catalogue of Herbicidal damage score, ZEAMX values
system: a variety of test species; assay: Post-emergence herbicidal activity (Example 8b, Table 3); type: in vivo; conditions: Zea mays; application post-emergence; rate 1000 g/ha; evaluated after 13 days; scale 0-5

In [3]: df
Out[3]:
                                   compound                   endpoint_name  observed
0  CC1=C(Cl)C(=O)N(c2cc(/C=C/C(C)(C)C)n(C)n2)C1O (centres unmarked) [Compound B11]  Herbicidal damage score, ZEAMX         1
1  COC1=C(OC)C(O)N(c2cc(C(F)(F)F)n(C)n2)C1=O (centres unmarked)  Herbicidal damage score, ZEAMX         5
2  CC1=C(Br)C(=O)N(c2cc(C(C)(C)C)[nH]n2)C1O (centres unmarked)  Herbicidal damage score, ZEAMX         5
3  CC1=C(Cl)C(=O)N(c2cc(C)n(C(F)(F)F)n2)C1O (centres unmarked)  Herbicidal damage score, ZEAMX         1

Now for a further compound.
Report measured Herbicidal damage score, ZEAMX; entry is CC1=C(Br)C(=O)N(c2nn(C)c(C(C)(C)C)c2C#N)C1O (centres unmarked) 3

###

tested on: a variety of test species; assay: Pre-emergence herbicidal activity (Example 8a, Table 2); assay type: in vivo; set-up: key: 0 = no damage to plant, 5 = total damage to plant; details: SETFA; application pre-emergence; rate 1000 g/ha; evaluated after 13 days
endpoint name: Pre-emergence herbicidal activity, damage score SETFA

Recorded results for 4 molecules are shown here.
In [3]: df
Out[3]:
                                   molecule  observed
0  CC1=C(Cl)C(=O)N(c2nn(C)c3c2C2CCC3C2)C1O (centres unmarked)         5
1  CC1=C(Cl)C(=O)N(c2cc3n(n2)CCC3(C)C)C1O (centres unmarked) [Compound G8]         5
2  COC1=C(C)C(O)N(c2cc3n(n2)CCC3(C)C)C1=O (centres unmarked)         5
3  CC1=C(Cl)C(=O)N(c2cc(C(F)(F)F)n(CC(F)(F)F)n2)C1O (centres unmarked) [Compound C9]         4

In the following, a different molecule is considered.
Given the molecule COC1=C(C)C(O)N(c2nn(C)c(C(C)(C)C)c2C#N)C1=O (centres unmarked) , write its reported Pre-emergence herbicidal activity, damage score SETFA. 4

###

test system: a variety of test species; assay: Pre-emergence herbicidal activity (Example 8a, Table 2); format: in vivo; parameters: key: 0 = no damage to plant, 5 = total damage to plant; conditions: SETFA; application pre-emergence; rate 1000 g/ha; evaluated after 13 days
endpoint name: Pre-emergence herbicidal activity, damage score SETFA
# answer = number (no unit)

In [3]: df
Out[3]:
                                   compound  observed
0  CC(C)=Cc1cc(N2C(=O)C(Cl)=C(C)C2O)nn1C (centres unmarked) [Compound B20]         4
1  COC1=C(C)C(O)N(c2cc3n(n2)CCCC3(C)C)C1=O (centres unmarked) [Compound R2]         5
2  CCOC(C)(CC)c1cc(N2C(=O)C(Cl)=C(C)C2O)nn1C (centres unmarked) [Compound B32]         5
3  CC(C)=CCc1cc(N2C(=O)C(Cl)=C(C)C2O)nn1C (centres unmarked) [Compound B10]         0
4  CC1=C(Cl)C(=O)N(c2cc(C)n(C(F)(F)F)n2)C1O (centres unmarked) [Compound C13]         2
5  CC1=C(Cl)C(=O)N(c2cc(C(F)(F)C(F)(F)F)n(C)n2)C1O (centres unmarked) [Compound B4]         5
6  CC1=C(Cl)C(=O)N(c2cc(Cl)n(C)n2)C1O (centres unmarked) [Compound B9]         5
7  CSc1c(C#N)c(N2C(=O)C(Cl)=C(C)C2O)nn1C (centres unmarked) [Compound D5]         0
8  CC1=C(Cl)C(=O)N(c2cc([S+](C)[O-])n(C)n2)C1O (mixture of isomers) [Compound B46]         4
9  CC1=C(Cl)C(=O)N(c2cc(C(C)(C)C)[nH]n2)C1O (centres unmarked) [Compound A1]         5

Name the recorded Pre-emergence herbicidal activity, damage score SETFA of the compound listed here: CC1=C(Cl)C(=O)N(c2cc(C(F)(F)F)n(C(C)C)n2)C1O (centres unmarked) [Compound C7] 4

Specify reported Pre-emergence herbicidal activity, damage score SETFA for the compound shown: CC1=C(Br)C(=O)N(c2cc(C(C)(C)C)n(C)n2)C1O (centres unmarked) [Compound J2] 4

# return recorded Pre-emergence herbicidal activity, damage score SETFA for input CC1=C(Br)C(=O)N(c2cc3n(n2)CCCC3(C)C)C1O (centres unmarked) [Compound M2] 4
